# molecule, melting point
records = [
    ("Cc1c(C(=O)Nc2ccc(N3CCC(N4CCOCC4)CC3)c([N+](=O)[O-])c2)cnn1-c1ccc(C(F)(F)F)cc1", "225 to 230 °C"),
    ("COC(=O)C(=O)c1ccc(OCCCCOc2ccccc2)cc1", "57 to 59 °C"),
    ("CCc1cccc(CC)c1NC(=O)NC1(c2cccs2)CCCCC1", "208 to 210 °C"),
    ("COC(=O)CCc1cc(NC(=O)c2ccc(C(=O)Nc3cc(CCC(=O)OC)cc(C(C)(C)C)c3O)s2)c(O)c(C(C)(C)C)c1", "172 to 173 °C"),
    ("CC(C)(C)OC(=O)N1CCN(CCO[Si](C)(C)C(C)(C)C)C1=O", "35.5 to 45.5 °C"),
    ("CCC(CC)NC(=O)CCCOc1ccc2nc3[nH]c(=O)[nH]c3cc2c1", "312 to 314 °C"),
    ("CCn1c(=O)c2c(nc(/C=C/c3ccc(C)cc3)n2C)n(CC)c1=O", "171 to 172 °C"),
    ("COc1ccc(-c2cc(C(=O)O)sc2-c2ccc(F)cc2)cc1", "204 to 206 °C"),
    ("COc1cc(C(=O)O)cc(C(F)(F)F)c1", "131 to 135 °C"),
    ("CNC(=S)NCCCCCCc1csc(NC(=N)N)n1", "162 to 164 °C"),
    ("COC(=O)c1cc(F)c([N+](=O)[O-])cc1NC(C)=O", "124 to 126 °C"),
    ("COc1ccc(C)c2nc(Cc3ccc(Cl)cc3)[nH]c12", "195 to 197 °C"),
    ("CC(=O)Nc1cc(N)c(Cl)cc1F", "142 to 143 °C"),
    ("COC(=O)C1C(C)=NC(N2CCCCC2)=C(C(=O)OC(C)C)C1c1cccc([N+](=O)[O-])c1 (stereo not given)", "112 °C"),
    ("O=C(Nc1ccc(-c2c[nH]c(=O)cn2)cc1)OCc1ccccc1", "240 to 244 °C"),
    ("COc1ccc(-c2c(NS(=O)(=O)c3ccc(C)cc3)ncnc2OCCO)cc1", "147 to 149 °C"),
    ("Cc1c(NC(=O)CC(C)(C)C)cc2c(c1C)OC(C)(C)C2Nc1ccccc1OC(F)(F)F (stereo not given)", "196 to 197 °C"),
    ("C[C@@H]1O[C@@]1(Cn1cncn1)c1ccc(F)cc1F (racemic)", "66 to 68 °C"),
    ("CCOC(=O)CS(=O)(=O)N(Cc1ccc(Cl)cc1)c1ccccc1CC(=O)OC", "86 to 88 °C"),
    ("COc1cccc(-c2cccc3c2S(=O)(=O)NC(C2CCCCC2)N3)c1 (stereo not given)", "108 to 115 °C"),
]
